- assay target: T1, GLP-1 receptor present in the plasma membranes isolated from RINm5F cells (UniProt P32301 22-463, limits assumed)
- T1 sequence (looked up): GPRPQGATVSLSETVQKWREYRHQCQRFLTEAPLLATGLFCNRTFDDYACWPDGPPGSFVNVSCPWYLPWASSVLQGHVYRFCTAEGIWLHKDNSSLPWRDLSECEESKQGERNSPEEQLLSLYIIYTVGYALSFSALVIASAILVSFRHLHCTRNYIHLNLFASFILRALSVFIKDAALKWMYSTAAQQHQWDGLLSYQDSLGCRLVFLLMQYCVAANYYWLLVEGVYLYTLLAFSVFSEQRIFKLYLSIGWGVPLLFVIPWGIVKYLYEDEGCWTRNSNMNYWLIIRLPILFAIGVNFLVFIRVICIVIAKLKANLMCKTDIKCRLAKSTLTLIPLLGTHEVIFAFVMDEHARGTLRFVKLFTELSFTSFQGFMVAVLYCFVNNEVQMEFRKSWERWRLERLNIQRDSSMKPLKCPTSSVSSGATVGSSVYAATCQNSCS
- assay notes: cell-based or functional assay
Ends that are not written are not given here. * marks the point of attachment. Palmitoyl = CCCCCCCCCCCCCCCC(=O)*
measured property: % GLP1 max, cAMP SPA in RINm5F cells (%)
Numbers only, in %.

Would you please look over these solved cases?
>>> val("HSQGTFTSDYARYLDARRAK(Palmitoyl)EFIKWLVRGRG (not fully specified; printed as HSQGTFTSDYARYLDARRAK(FA)EFIKWLVRGRG) [G183]")
90.5
>>> val("HSQGTFTSDYAKYLDARRAKEFIAWLVKGRG [G51]")
91.2
>>> val("HSQGTFTSDYARYLDARRAREFIKWLVRGRG [G83]")
89.4
>>> val("HSQGTFTSDYAAYLDARRAKEFIAWLVKGR-NH2 [G56]")
115

Quick one: give me % GLP1 max, cAMP SPA in RINm5F cells for each item below, same order please.
1. HSQGTFTSDYARYLDARRAKEFIAWLVKGR-NH2 [G55]
2. HSQGTFTSDYSKYLDSRRAQDFVQWLVKGR-NH2 [G1]
3. HSQGTFTSDYARYLDAAKAKEFIAWLVKGRG [G61]

1. 116
2. 112
3. 96

Your task in this section: give % GLP1 max, cAMP SPA in RINm5F cells for each listed record.
1. HSQGTFTSDYARYLDARRAREFIKWLVRGRC(PEG22kD) [G2185]
2. HSQGTFTSDYARYLDARRAREFIKWLVRGRGK(Palmitoyl) [G182]

113
104
